Parameter: inhibition. Scope: all listed entries.
Assay Target: NAD-dependent protein deacetylase sirtuin-2 (Homo sapiens)
Sequence (whole entry): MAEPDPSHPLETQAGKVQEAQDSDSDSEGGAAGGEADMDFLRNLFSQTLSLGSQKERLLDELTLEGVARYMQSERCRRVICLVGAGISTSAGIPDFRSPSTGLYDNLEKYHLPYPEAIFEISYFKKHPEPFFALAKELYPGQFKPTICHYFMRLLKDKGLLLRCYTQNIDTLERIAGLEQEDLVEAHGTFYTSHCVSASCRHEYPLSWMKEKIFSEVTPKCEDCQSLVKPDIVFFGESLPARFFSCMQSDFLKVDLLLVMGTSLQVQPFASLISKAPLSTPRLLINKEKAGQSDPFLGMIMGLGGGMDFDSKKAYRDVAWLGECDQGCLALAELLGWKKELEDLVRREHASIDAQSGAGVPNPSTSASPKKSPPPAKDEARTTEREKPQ
Protocol Description: Inhibition of recombinant human C-terminal His-tagged SIRT2 (50 to 389 end residues) expressed in Escherichia coli at 10 uM using p53 derived (379 to 382 residues) fluorogenic peptide substrate RHKK(Ac)-AMC preincubated for 10 mins followed by substrate addition in presence of NAD+ by fluorescence assay relative to control
Express your answer in %, writing the number without its unit.

Some solved cases for reference:
{"columns": ["Compound", "inhibition, %"],
 "data": [
  ["O=c1c2c3c(sc2ncn1Cc1cccc2ccccc12)CC(NCc1ccccc1F)CC3 (stereo not given)", 71],
  ["COc1ccccc1Cn1cnc2sc3c(c2c1=O)CCC(NCc1ccccc1)C3 (stereo not given)", 75],
  ["O=c1c2c3c(sc2ncn1Cc1cccc2ccccc12)CC(NCc1cccc(F)c1)CC3 (stereo not given)", 65],
  ["O=c1c2c3c(sc2ncn1Cc1cccc(-c2ccccc2)c1)CC(NC1CCOCC1)CC3 (stereo not given)", 93]
]}

Let us move to another entry and its inhibition.
# query: inhibition of entry O=c1c2c3c(sc2ncn1Cc1cccc2cccnc12)CC(NCCC1CCCCC1)CC3 (stereo not given) 81

====

Parameter: inhibition. Scope: all listed entries.
Assay Target: UniProt:Q8IXJ6
Sequence (whole entry): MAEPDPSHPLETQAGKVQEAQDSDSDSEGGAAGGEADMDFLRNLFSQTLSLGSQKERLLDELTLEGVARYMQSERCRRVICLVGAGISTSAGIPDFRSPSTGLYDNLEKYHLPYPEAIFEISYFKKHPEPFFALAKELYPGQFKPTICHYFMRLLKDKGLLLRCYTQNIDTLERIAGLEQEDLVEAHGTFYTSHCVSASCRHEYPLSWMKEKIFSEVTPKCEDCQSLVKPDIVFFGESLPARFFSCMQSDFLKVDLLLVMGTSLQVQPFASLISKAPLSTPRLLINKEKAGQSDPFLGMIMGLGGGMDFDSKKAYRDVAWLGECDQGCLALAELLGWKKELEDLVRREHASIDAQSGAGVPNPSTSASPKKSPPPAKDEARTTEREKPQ
Protocol Description: Inhibition of recombinant human C-terminal His-tagged SIRT2 (50 to 389 end residues) expressed in Escherichia coli at 10 uM using p53 derived (379 to 382 residues) fluorogenic peptide substrate RHKK(Ac)-AMC preincubated for 10 mins followed by substrate addition in presence of NAD+ by fluorescence assay relative to control
Express your answer in %, writing the number without its unit.

Some solved cases for reference:
{"columns": ["Molecule", "inhibition, %"],
 "data": [
  ["O=c1c2c3c(sc2ncn1Cc1cccc2cccnc12)CC(NCc1ccccc1F)CC3 (centres undefined)", 49],
  ["COc1cccc(Cn2cnc3sc4c(c3c2=O)CCC(NC2CCc3ccccc32)C4)c1 (centres undefined)", 64],
  ["O=c1c2c3c(sc2ncn1Cc1ccc2ccccc2c1)CC(NCc1cccs1)CC3 (centres undefined)", 62]
]}

Let us move to another entry and its inhibition.
# query: inhibition of entry O=c1c2c3c(sc2ncn1Cc1cccc2ccccc12)CC(Nc1ccc(F)cc1)CC3 (centres undefined) 50

====

Assay Target: UniProt:Q8IXJ6
Protocol Description: Inhibition of recombinant human C-terminal His-tagged SIRT2 (50 to 389 end residues) expressed in Escherichia coli at 10 uM using p53 derived (379 to 382 residues) fluorogenic peptide substrate RHKK(Ac)-AMC preincubated for 10 mins followed by substrate addition in presence of NAD+ by fluorescence assay relative to control
Observable: inhibition (%)
Express your answer in %, writing the number without its unit.

{"columns": ["Compound", "Assay Target", "Display Unit", "inhibition"],
 "data": [
  ["O=c1c2c3c(sc2ncn1Cc1cccc2cccnc12)CC(NCc1cccc(Cl)c1)CC3 (centres undefined)", "UniProt:Q8IXJ6", "%", 88],
  ["COc1ccc2ccccc2c1Cn1cnc2sc3c(c2c1=O)CCC(NCc1ccc(C#N)cc1)C3 (centres undefined)", "UniProt:Q8IXJ6", "%", 75],
  ["O=c1c2c3c(sc2ncn1Cc1cccc(-c2ccccc2)c1)CC(NCCC1CCCCC1)CC3 (centres undefined)", "UniProt:Q8IXJ6", "%", 90],
  ["COc1ccccc1NC1CCc2c(sc3ncn(Cc4cccc5ccccc45)c(=O)c23)C1 (centres undefined)", "UniProt:Q8IXJ6", "%", 22],
  ["O=c1c2c3c(sc2ncn1Cc1ccccc1)CC(NCc1ccccc1Cl)CC3 (centres undefined)", "UniProt:Q8IXJ6", "%", 67]
]}

# query: inhibition of entry O=c1c2c3c(sc2ncn1Cc1cccc(-c2ccccc2)c1)CC(NCC1CCOC1)CC3 (centres undefined) 91

====

Assay Target: NAD-dependent protein deacetylase sirtuin-2 (Homo sapiens, UniProt Q8IXJ6)
Protocol Description: Inhibition of recombinant human C-terminal His-tagged SIRT2 (50 to 389 end residues) expressed in Escherichia coli using p53 derived (379 to 382 residues) fluorogenic peptide substrate RHKK(Ac)-AMC preincubated for 10 mins followed by substrate addition in presence of NAD+ by fluorescence assay
Quick rule for you: IC50 under 4 µM gets yes, anything else gets no.

Consider the following illustrative entries.
{"columns": ["Compound", "Category"],
 "data": [
  ["O=c1c2c3c(sc2ncn1Cc1cccc2ccccc12)CC(NCc1cncnc1)CC3 (centres undefined)", "no"],
  ["Cc1noc(C)c1CNC1CCc2c(sc3ncn(Cc4cccc5ccccc45)c(=O)c23)C1 (centres undefined)", "yes"]
]}

Is IC50 of COc1ccc(CNC2CCc3c(sc4ncn(Cc5cccc6ccccc56)c(=O)c34)C2)cn1 (centres undefined) strictly below 4 µM? no

Is IC50 of COc1ccc(Cn2cnc3sc4c(c3c2=O)CCC(NCc2c(C)noc2C)C4)c2ccccc12 (centres undefined) strictly below 4 µM? yes

Is IC50 of O=c1c2c3c(sc2ncn1Cc1cccc2cccnc12)CC(NCc1ccncc1)CC3 (centres undefined) strictly below 4 µM? yes

Is IC50 of O=c1c2c3c(sc2ncn1Cc1ccc2ccccc2c1)CC(NCCc1cccnc1)CC3 (centres undefined) strictly below 4 µM? no

Is IC50 of COc1ccccc1Cn1cnc2sc3c(c2c1=O)CCC(NC1CCc2ccccc21)C3 (centres undefined) strictly below 4 µM? no

Is IC50 of COc1ccc(CNC2CCc3c(sc4ncn(Cc5ccc6ccccc6c5)c(=O)c34)C2)cn1 (centres undefined) strictly below 4 µM? no

====

Assay Target: NAD-dependent protein deacetylase sirtuin-2 (Homo sapiens) (UniProt Q8IXJ6)
Protocol Description: Inhibition of recombinant human C-terminal His-tagged SIRT2 (50 to 389 end residues) expressed in Escherichia coli at 10 uM using p53 derived (379 to 382 residues) fluorogenic peptide substrate RHKK(Ac)-AMC preincubated for 10 mins followed by substrate addition in presence of NAD+ by fluorescence assay relative to control
Observable: inhibition (%)
Express your answer in %, writing the number without its unit.

Some solved cases for reference:
{"columns": ["Molecule", "Display Unit", "Experimental Value"],
 "data": [
  ["COc1cccc(CNC2CCc3c(sc4ncn(Cc5cccc(OC)c5)c(=O)c34)C2)c1 (centres undefined)", "%", 58],
  ["COc1ccc(Cn2cnc3sc4c(c3c2=O)CCC(NCC2CCOC2)C4)c2ccccc12 (centres undefined)", "%", 70],
  ["COc1ccc(Cn2cnc3sc4c(c3c2=O)CCC(NC2CCCC2)C4)c2ccccc12 (centres undefined)", "%", 94],
  ["O=c1c2c3c(sc2ncn1Cc1ccc2ccccc2c1)CC(NCc1ccncc1)CC3 (centres undefined)", "%", 92],
  ["COc1ccc(Cn2cnc3sc4c(c3c2=O)CCC(Nc2ccc3c(c2)OCO3)C4)c2ccccc12 (centres undefined)", "%", 38]
]}

# query: inhibition of entry O=c1c2c3c(sc2ncn1Cc1cccc2ccccc12)CC(NCCc1cccnc1)CC3 (centres undefined) 80

# query: inhibition of entry O=c1c2c3c(sc2ncn1Cc1cccc2ccccc12)CC(NC1CCc2ccccc21)CC3 (centres undefined) 58

# query: inhibition of entry O=c1c2c3c(sc2ncn1Cc1cccc(-c2ccccc2)c1)CC(NCc1cccc(Cl)c1)CC3 (centres undefined) 43

# query: inhibition of entry O=c1c2c3c(sc2ncn1Cc1ccc2ccccc2c1)CC(NCC1CCCO1)CC3 (centres undefined) 71
